assay: Plasma protein binding by ultracentrifugation; type: in vitro ADME; conditions: male, rat plasma
measurementType: fraction unbound at 15 min, 5 ug/mL
Output spec: single numeric token, no unit.

Lookup result for C[C@H](NC(=O)N1CCc2cccnc2[C@H]1c1ccc(C(F)(F)F)cc1)C(F)(F)F [AMG2850] ; measured fraction unbound at 15 min, 5 ug/mL: 0.119

====

assay: Pharmacokinetics in plasma and brain, male Sprague-Dawley rats; type: in vivo; conditions: plasma, iv; male Sprague-Dawley rat; i.v. 2 mg/kg
measurementType: clearance (mL/min/kg)
Just the number in mL/min/kg, nothing appended.

Lookup result for C[C@H](NC(=O)N1CCc2cccnc2[C@H]1c1ccc(C(F)(F)F)cc1)C(F)(F)F ; measured clearance: 7.83

====

target: UniProtKB O35433; assay: Luminescence (aequorin) readout of intracellular calcium, CHO cells expressing rat TRPV1, capsaicin activation; conditions: 0.5 uM capsaicin, read-out: rTRPV1 IC50
Sequence (O35433 whole entry): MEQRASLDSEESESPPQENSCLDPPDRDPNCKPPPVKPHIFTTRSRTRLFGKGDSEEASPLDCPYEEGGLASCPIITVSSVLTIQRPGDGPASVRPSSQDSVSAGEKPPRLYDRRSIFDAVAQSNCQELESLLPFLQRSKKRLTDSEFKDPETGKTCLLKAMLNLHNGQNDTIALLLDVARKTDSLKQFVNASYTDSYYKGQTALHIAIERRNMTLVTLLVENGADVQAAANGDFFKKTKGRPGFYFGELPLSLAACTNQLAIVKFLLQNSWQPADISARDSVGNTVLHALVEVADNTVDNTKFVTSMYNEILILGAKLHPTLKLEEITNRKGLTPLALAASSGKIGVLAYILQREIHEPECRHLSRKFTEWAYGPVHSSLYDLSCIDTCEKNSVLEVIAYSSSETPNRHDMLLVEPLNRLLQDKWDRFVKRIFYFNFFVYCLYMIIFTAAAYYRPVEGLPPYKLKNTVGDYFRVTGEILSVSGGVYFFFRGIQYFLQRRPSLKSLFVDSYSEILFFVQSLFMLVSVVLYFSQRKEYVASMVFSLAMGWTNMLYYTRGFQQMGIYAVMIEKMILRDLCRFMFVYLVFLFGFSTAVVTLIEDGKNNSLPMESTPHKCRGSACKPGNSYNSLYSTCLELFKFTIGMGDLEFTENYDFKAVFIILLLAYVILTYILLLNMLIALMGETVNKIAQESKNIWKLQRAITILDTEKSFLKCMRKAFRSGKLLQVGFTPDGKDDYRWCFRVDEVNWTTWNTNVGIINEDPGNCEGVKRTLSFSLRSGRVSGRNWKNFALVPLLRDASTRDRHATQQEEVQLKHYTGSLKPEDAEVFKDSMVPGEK
measurementType: IC50

Lookup result for C[C@H](NC(=O)N1CCc2cccnc2[C@H]1c1ccc(C(F)(F)F)cc1)C(F)(F)F ; measured IC50: > 25 µM

====

target: rat TRPA1 (Rattus norvegicus); construct: expressed in transfected cells; host or cells: CHO, T-REx tetracycline-inducible system (Invitrogen), co-transfected with aequorin; experiment: Luminescence (aequorin) readout of intracellular calcium, CHO cells expressing rat TRPA1, AITC activation; assay type: cell-based; details: agonism, read-out: rTRPA1 agonism IC50
Sequence (Q6RI86 whole entry): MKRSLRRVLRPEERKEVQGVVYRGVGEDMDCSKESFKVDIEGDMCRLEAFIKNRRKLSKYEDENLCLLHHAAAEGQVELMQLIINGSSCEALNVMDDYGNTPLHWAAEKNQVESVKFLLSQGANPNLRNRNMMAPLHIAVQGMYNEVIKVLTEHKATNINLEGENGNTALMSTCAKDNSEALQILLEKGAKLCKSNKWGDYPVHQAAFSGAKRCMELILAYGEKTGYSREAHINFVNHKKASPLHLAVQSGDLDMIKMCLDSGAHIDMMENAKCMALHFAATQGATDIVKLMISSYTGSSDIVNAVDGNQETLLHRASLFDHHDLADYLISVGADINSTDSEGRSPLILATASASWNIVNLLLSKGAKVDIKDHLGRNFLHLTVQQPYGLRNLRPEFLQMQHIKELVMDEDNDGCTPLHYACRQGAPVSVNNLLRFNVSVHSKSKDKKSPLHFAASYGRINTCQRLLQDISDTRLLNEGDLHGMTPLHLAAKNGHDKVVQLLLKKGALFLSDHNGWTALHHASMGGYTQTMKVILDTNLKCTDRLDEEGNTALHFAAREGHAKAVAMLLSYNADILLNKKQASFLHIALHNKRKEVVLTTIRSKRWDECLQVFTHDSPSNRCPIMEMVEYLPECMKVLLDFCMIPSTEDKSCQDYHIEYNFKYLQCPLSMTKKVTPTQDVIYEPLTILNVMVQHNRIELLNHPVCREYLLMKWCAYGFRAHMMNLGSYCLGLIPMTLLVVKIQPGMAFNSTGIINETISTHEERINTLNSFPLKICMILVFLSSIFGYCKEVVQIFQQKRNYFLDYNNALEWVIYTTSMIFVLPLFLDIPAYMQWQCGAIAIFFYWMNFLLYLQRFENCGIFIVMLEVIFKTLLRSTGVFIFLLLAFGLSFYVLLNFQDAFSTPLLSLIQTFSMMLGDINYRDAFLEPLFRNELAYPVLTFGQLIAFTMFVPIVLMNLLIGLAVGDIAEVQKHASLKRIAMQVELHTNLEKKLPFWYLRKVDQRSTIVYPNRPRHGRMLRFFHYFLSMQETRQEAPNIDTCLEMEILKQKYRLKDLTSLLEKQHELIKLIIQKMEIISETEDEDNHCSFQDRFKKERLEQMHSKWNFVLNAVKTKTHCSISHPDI
measurementType: IC50

Lookup result for C[C@H](NC(=O)N1CCc2cccnc2[C@H]1c1ccc(C(F)(F)F)cc1)C(F)(F)F ; measured IC50: > 25 µM

====

molecular target: UniProtKB Q4QYD9; assay: Luminescence (aequorin) readout of intracellular calcium, CHO cells expressing rat TRPV3, 2-APB activation; details: 200 uM 2-APB, read-out: rTRPV3 IC50
Sequence (Q4QYD9 1-791): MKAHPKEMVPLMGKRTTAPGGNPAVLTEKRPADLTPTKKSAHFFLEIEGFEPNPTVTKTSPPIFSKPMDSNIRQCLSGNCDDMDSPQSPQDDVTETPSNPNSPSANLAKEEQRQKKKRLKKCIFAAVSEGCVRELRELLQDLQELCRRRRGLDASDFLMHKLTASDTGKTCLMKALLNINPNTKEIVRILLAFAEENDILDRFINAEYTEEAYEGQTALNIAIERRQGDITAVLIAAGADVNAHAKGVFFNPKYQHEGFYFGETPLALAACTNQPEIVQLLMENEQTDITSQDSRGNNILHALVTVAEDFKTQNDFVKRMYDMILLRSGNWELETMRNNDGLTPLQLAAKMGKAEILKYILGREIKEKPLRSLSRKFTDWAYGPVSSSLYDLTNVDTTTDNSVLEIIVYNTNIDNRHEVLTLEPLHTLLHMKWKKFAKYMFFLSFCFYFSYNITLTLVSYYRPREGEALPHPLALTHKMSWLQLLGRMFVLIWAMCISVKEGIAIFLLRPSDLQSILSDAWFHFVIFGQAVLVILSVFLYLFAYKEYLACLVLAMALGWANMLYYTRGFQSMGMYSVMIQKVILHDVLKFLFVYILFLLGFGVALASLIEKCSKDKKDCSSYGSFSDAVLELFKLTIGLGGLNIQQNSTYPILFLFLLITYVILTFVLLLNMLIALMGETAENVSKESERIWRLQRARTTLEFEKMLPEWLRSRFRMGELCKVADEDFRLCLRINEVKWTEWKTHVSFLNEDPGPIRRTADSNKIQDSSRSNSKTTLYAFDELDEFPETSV
pIC50: −log10 of the molar value.
measurementType: pIC50

Lookup result for C[C@H](NC(=O)N1CCc2cccnc2[C@H]1c1ccc(C(F)(F)F)cc1)C(F)(F)F ; measured pIC50: < 4.60

====

assay: Pharmacokinetics in plasma and brain, male Sprague-Dawley rats; format: in vivo; details: plasma; male Sprague-Dawley rat; 5 mg/kg oral gavage
measurementType: bioavailability

Lookup result for C[C@H](NC(=O)N1CCc2cccnc2[C@H]1c1ccc(C(F)(F)F)cc1)C(F)(F)F [AMG2850] ; measured bioavailability: > 40%
